# TEST_NAME: In vivo topical administration pharmacokinetics of K173, rabbit (aqueous humor, cornea)
# STUDY_CONDITIONS: aqueous humor, topical or ocular, 5 mg/ml, Group 1 (single dose), topical 5 mg/ml, 4 hr post-last dose, OS, individual animals, read-out: K173 Concentrations (ng/mL) in Rabbit Aqueous Humor OS Sample
Positions of bridges follow the written chain, without caps; N, C: chain ends. Non-standard residues stand in square brackets, D forms with d. Residues, ends and D or L forms follow the SMILES beside them. Triazole bridges read from a SMILES are 1,4-linked. *: point of attachment. Benzoyl(3,5-(OH)2) = O=C(c1cc(O)cc(O)c1)*; Lys(N3) = [N-]=[N+]=NCCCC[C@H](N)C(=O)O; dPhe(4-F) = N[C@H](Cc1ccc(F)cc1)C(=O)O; Nle = CCCC[C@H](N)C(=O)O; Pra = C#CC[C@H](N)C(=O)O
METRIC_NAME: level at 4 h (ng/mL)
Only the number, expressed in ng/mL, is required.

# level at 4 h of CCCC[C@H](NC(=O)c1cc(O)cc(O)c1)C(=O)N[C@H]1CCCCn2cc(nn2)C[C@@H](C(N)=O)NC(=O)[C@H](Cc2c[nH]c3ccccc23)NC(=O)[C@H](CCCNC(=N)N)NC(=O)[C@@H](Cc2ccc(F)cc2)NC(=O)[C@H](Cc2c[nH]cn2)NC1=O [KR-072] ({Benzoyl(3,5-(OH)2)}-[Nle][Lys(N3)]H[dPhe(4-F)]RW[Pra]-NH2; triazole 2-7) = 3.56

---

# TEST_NAME: In vivo topical administration pharmacokinetics of K173, rabbit (aqueous humor, cornea)
# STUDY_CONDITIONS: aqueous humor, topical or ocular, 5 mg/ml, Group 1 (single dose), topical 5 mg/ml, 24 hr post-last dose, OS, Mean, read-out: K173 Concentrations (ng/mL) in Rabbit Aqueous Humor OS Sample, Mean
Positions of bridges follow the written chain, without caps; N, C: chain ends. Non-standard residues stand in square brackets, D forms with d. Residues, ends and D or L forms follow the SMILES beside them. Triazole bridges read from a SMILES are 1,4-linked. *: point of attachment. Benzoyl(3,5-(OH)2) = O=C(c1cc(O)cc(O)c1)*; Lys(N3) = [N-]=[N+]=NCCCC[C@H](N)C(=O)O; dPhe(4-F) = N[C@H](Cc1ccc(F)cc1)C(=O)O; Nle = CCCC[C@H](N)C(=O)O; Pra = C#CC[C@H](N)C(=O)O
METRIC_NAME: level at 24 h
Returns: string containing the number followed by the unit.

Recorded level at 24 h (compound CCCC[C@H](NC(=O)c1cc(O)cc(O)c1)C(=O)N[C@H]1CCCCn2cc(nn2)C[C@@H](C(N)=O)NC(=O)[C@H](Cc2c[nH]c3ccccc23)NC(=O)[C@H](CCCNC(=N)N)NC(=O)[C@@H](Cc2ccc(F)cc2)NC(=O)[C@H](Cc2c[nH]cn2)NC1=O [KR-072] ({Benzoyl(3,5-(OH)2)}-[Nle][Lys(N3)]H[dPhe(4-F)]RW[Pra]-NH2; triazole 2-7) ): 2.46 ng/mL

---

# TARGET_DESC: human recombinant MC1R (Homo sapiens, UniProt Q01726)
# Sequence (Q01726 whole entry): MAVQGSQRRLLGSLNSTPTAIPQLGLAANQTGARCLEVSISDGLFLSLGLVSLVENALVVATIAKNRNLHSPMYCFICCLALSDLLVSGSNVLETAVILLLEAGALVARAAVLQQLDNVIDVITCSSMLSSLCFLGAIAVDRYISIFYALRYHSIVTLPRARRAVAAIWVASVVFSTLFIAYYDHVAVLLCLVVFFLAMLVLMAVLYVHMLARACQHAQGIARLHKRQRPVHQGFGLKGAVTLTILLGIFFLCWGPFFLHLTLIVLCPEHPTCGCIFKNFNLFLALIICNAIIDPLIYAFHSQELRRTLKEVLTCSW
# TEST_NAME: cyclic AMP (cAMP) functional assay, MC1R stable cell line (CHO-K1);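 also: cells with test compound for 60 min at room temperature in buffer containing IBMX, then cAMP quantified by Eu-cAMP tracer and ULight anti-cAMP detection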
# STUDY_CONDITIONS: cAMP functional assay
pIC50: −log10 of the molar value. Positions of bridges follow the written chain, without caps; N, C: chain ends. Non-standard residues stand in square brackets, D forms with d. Residues, ends and D or L forms follow the SMILES beside them. Triazole bridges read from a SMILES are 1,4-linked. Lys(N3) = [N-]=[N+]=NCCCC[C@H](N)C(=O)O; Orn(N3) = [N-]=[N+]=NCCC[C@H](N)C(=O)O; dPhe(4-F) = N[C@H](Cc1ccc(F)cc1)C(=O)O; NMeH = CN[C@@H](Cc1c[nH]cn1)C(=O)O; NMeR = CN[C@@H](CCCNC(=N)N)C(=O)O; Hpra = C#CCC[C@H](N)C(=O)O; Nle = CCCC[C@H](N)C(=O)O; Pra = C#CC[C@H](N)C(=O)O
Mark NOT MET for pIC50 values under 9, and MET for everything at or above.

Record excerpt, results attached:
MOLECULE | TARGET_DESC | CAT
CCCC[C@H](NC(C)=O)C(=O)N[C@H]1CSCc2cccc(c2)CSC[C@@H](C(=O)N[C@@H](Cc2c[nH]c3ccccc23)C(N)=O)NC(=O)[C@H](CCCNC(=N)N)NC(=O)[C@@H](Cc2ccccc2)NC(=O)[C@H](Cc2c[nH]cn2)NC1=O | human recombinant MC1R (Homo sapiens, UniProt Q01726) | MET
CCCC[C@H](NC(C)=O)C(=O)N[C@H]1CCCCn2cc(nn2)C[C@@H](C(N)=O)NC(=O)[C@H](Cc2c[nH]c3ccccc23)NC(=O)[C@H](CCCNC(=N)N)N(C)C(=O)[C@@H](Cc2ccccc2)NC(=O)[C@H](Cc2c[nH]cn2)N(C)C1=O [KR-052] (Ac-[Nle][Lys(N3)][NMeH][dF][NMeR]W[Pra]-NH2; triazole 2-7) | human recombinant MC1R (Homo sapiens, UniProt Q01726) | NOT MET
CCCC[C@H](NC(C)=O)C(=O)N[C@H]1CCCn2cc(nn2)CC[C@@H](C(=O)N[C@@H](CCCCN)C(N)=O)NC(=O)[C@H](Cc2c[nH]c3ccccc23)NC(=O)[C@H](CCCNC(=N)N)NC(=O)[C@@H](Cc2ccccc2)NC(=O)[C@H](Cc2c[nH]cn2)NC1=O [KR-068] (Ac-[Nle][Orn(N3)]H[dF]RW[Hpra]K-NH2; triazole 2-7) | human recombinant MC1R (Homo sapiens, UniProt Q01726) | MET
CCCC[C@H](NC(C)=O)C(=O)N[C@H]1CCCCn2cc(nn2)C[C@@H](C(=O)N[C@@H](CCCCN)C(N)=O)NC(=O)[C@H](Cc2c[nH]c3ccccc23)NC(=O)[C@H](CCCNC(=N)N)NC(=O)[C@@H](Cc2ccc(OC)cc2)NC(=O)[C@H](Cc2c[nH]cn2)NC1=O [KR-058] (Ac-[Nle][Lys(N3)]H[dY](Me)RW[Pra]K-NH2; triazole 2-7) | human recombinant MC1R (Homo sapiens, UniProt Q01726) | NOT MET
CCCC[C@H](NC(C)=O)C(=O)N[C@H]1CCCCn2cc(nn2)C[C@@H](C(=O)N[C@@H](CCCCN)C(N)=O)NC(=O)[C@H](Cc2c[nH]c3ccccc23)NC(=O)[C@H](CCCNC(=N)N)NC(=O)[C@@H](Cc2ccccc2)NC(=O)[C@H](Cc2c[nH]cn2)NC1=O [KR-037] (Ac-[Nle][Lys(N3)]H[dF]RW[Pra]K-NH2; triazole 2-7) | human recombinant MC1R (Homo sapiens, UniProt Q01726) | MET

In: pIC50 >= 9 for CCCC[C@H](NC(C)=O)C(=O)N[C@H]1CCCCn2cc(nn2)C[C@@H](C(N)=O)NC(=O)[C@H](Cc2c[nH]c3ccccc23)NC(=O)[C@H](CCCNC(=N)N)NC(=O)[C@@H](Cc2ccc(F)cc2)NC(=O)[C@H](Cc2c[nH]cn2)NC1=O [KR-049] (Ac-[Nle][Lys(N3)]H[dPhe(4-F)]RW[Pra]-NH2; triazole 2-7) ?
Out: MET

In: Please check the record CSCC[C@H](NC(=O)[C@H](CO)NC(=O)[C@H](Cc1ccc(O)cc1)NC(=O)[C@H](CO)NC(C)=O)C(=O)N[C@@H](CCC(=O)O)C(=O)N[C@@H](Cc1c[nH]cn1)C(=O)N(C)[C@@H](Cc1ccccc1)C(=O)N[C@@H](CCCNC(=N)N)C(=O)N[C@@H](Cc1c[nH]c2ccccc12)C(=O)NCC(=O)N[C@@H](CCCCN)C(=O)N1CCC[C@H]1C(=O)N[C@H](C(N)=O)C(C)C and state if its pIC50 is at or above 9.
Out: NOT MET

From: patent US20260152527A1
